Origin of the recorded values: PubChem BioAssay (NCI)

// TGI lookup, one value per entry
system: LOX IMVI melanoma; assay: NCI tumour cell line growth inhibition, 48 h
Give a bare numeral; the unit µM is implied.

MOLECULE | TGI (µM)
CC(=O)[O-].O=C([CH-]C(=O)c1ccccc1)c1ccccc1.O=C([CH-]C(=O)c1ccccc1)c1ccccc1.[Dy+3] | 30.9

Exercise: Requested read-out: TGI. Entry: Cc1c(CNc2ccc(Cl)c(Cl)c2Cl)cnc2nc(N)nc(N)c12
Solution: 13.6

Exercise: Please answer likewise for C/C(=C/C(=O)N(C)c1ccccc1Cl)O[Si](C(C)C)(C(C)C)C(C)C
Solution: 33.2

Exercise: Could you do the same for N#CSc1c[nH]c2cccc(/C=C/C(=O)/C=C(O)/C=C/c3cccc4[nH]cc(SC#N)c34)c12 , please?
Solution: 0.547

Exercise: Next molecule: C[C@@H](NC(=O)Nc1cccc(C(=O)Nc2cc(C(C)(C)C)ccc2C(=O)O)n1)c1ccccc1
Solution: 36.7

Exercise: Now the same for CC(C)c1c(C(=O)Nc2ccccc2)c(-c2ccccc2)c(-c2ccc(F)cc2)n1CC[C@@H](O)C[C@@H](O)CC(=O)O
Solution: 22.9
